testDescription: Cytotoxicity against human HL7702 cells assessed as inhibition rate at 100 uM measured after 48 hrs by MTT assay
Assay type: cell-based, L02
settings: read-out: INH
// map cytotoxicity at 48 h, 100 µM to label using LOW = under 40%, MEDIUM = from 40% up to 50%, HIGH = 50% and over

Reference set (6 entries):
Band of `O=C(Nc1cccc(Cl)c1)Nc1ccc(-c2cc(=O)c3ccccc3o2)c(Cl)c1` ?
MEDIUM

Which class holds `CCc1ccc2oc(-c3ccc(NC(=O)Nc4ccc(Cl)cc4)cc3Cl)cc(=O)c2c1` ?
LOW

Bin this entry: `COc1ccc2oc(-c3ccc(NC(=O)Nc4ccc(Cl)c(Cl)c4)cc3Cl)cc(=O)c2c1`
HIGH

Tag the class for `CCc1ccc2oc(-c3ccc(NC(=O)Cc4ccc(F)cc4)cc3Cl)cc(=O)c2c1`
MEDIUM

Hello team, could you let me know which band the following compound falls into: `CCc1ccc2oc(-c3ccc(NC(=O)Cc4cccc(F)c4)cc3Cl)cc(=O)c2c1`
MEDIUM

Input `O=C(Nc1cccc(Cl)c1)Nc1ccc(-c2cc(=O)c3ccc(O)cc3o2)c(Cl)c1` ; output its category
HIGH

More entries:
Just checking, what class would you give `O=C(Nc1cccc(Cl)c1)Nc1ccc(-c2cc(=O)c3cc(F)ccc3o2)c(Cl)c1` here?
HIGH

Form: Item = `CCc1ccc2oc(-c3ccc(NC(=O)Nc4cccc(Cl)c4)cc3Cl)cc(=O)c2c1` ; Class = ?
LOW

Note: place this compound into its band. Item: CNC(=O)c1cc(Oc2ccc(NC(=O)Nc3ccc(Cl)c(C(F)(F)F)c3)cc2)ccn1 [SORAFENIB]
LOW
